Consider the following compounds; for each one, report its melting point.

Some solved entries appear below for comparison.
- CPD SMILES: "CN(C)Cc1cc2ccc(-c3nnc(CSCCOc4ccccc4)o3)cc2[nH]1"
  melting point: "128 to 130 °C"
- CPD SMILES: "CN(C)Cc1cn(C)c2ccc(-c3nnc(CSCCOc4ccccc4)o3)cc12.O=C(O)C(=O)O"
  melting point: "151 to 154 °C"
- CPD SMILES: "CN(C)Cc1cc2cc(-c3nnc(CSCCOc4ccccc4)o3)ccc2[nH]1.O=C(O)C(=O)O"
  melting point: "147 to 150 °C"
- CPD SMILES: "O=C(O)/C=C\\C(=O)O.c1ccc(OCCSCc2nnc(-c3ccc4cc(CN5CCCC5)ccc4c3)o2)cc1"
  melting point: "133 to 135 °C"

# input Reported melting point for `c1ccc(OCCSCc2nnc(-c3ccc4cc(CN5CCCCC5)ccc4c3)o2)cc1` : what is it?
# output 93 to 94 °C
